Target: T1, recombinant mouse VISTA (His-tagged) (mouse, UniProt Q9D659 33-191)
T1 construct: also called murine VISTA; mVISTA
T1 sequence (looked up): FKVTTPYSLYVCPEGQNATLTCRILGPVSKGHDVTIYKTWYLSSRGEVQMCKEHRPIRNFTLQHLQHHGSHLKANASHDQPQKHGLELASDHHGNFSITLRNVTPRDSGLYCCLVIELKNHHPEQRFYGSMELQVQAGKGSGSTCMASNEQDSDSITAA
Assay: ELISA, plate coated with mouse VISTA
MEASUREMENT LABEL: EC50

1. anti-VISTA clone V4-C31 IgG1 (antibody, V domains shown) VH: QVQLQESGPGLVKPSDTLSLTCTVSGYSITSDYTWNWIRQTPGKGLEWIGHITYSGSVSYNPSLRSRVTISRDTSKNQFSLKLSSVTAADTATYSCARALYYPWYFDVWGTGTTVTVSS VL: EIVLTQSPATLSLSPGERATLSCRASSSVGYIHWYQQKPGQAPRPLIYATYYRTTGIPARFSGSGSGTDNTLTISSLEPEDSAVYYCQQWSSYPPITFGGGTKLEVKR: 0.04 nM
